Field: total protein half-life in vivo. Provide a value for each of the sequences that follow.
EXPERIMENTAL_PROTOCOL: total protein half-life in vivo (active degradation + dilution); higher = more stable protein
ASSAY_CONDITIONS: wild type E. coli NCM3722; growth: C-lim chemostat; doubling time 3 h
Numbers only, in h.

Provide total protein half-life in vivo for all items below, preserving their order.
1. MRILLSNDDGVHAPGIQTLAKALREFADVQVVAPDRNRSGASNSLTLESSLRTFTFENGDIAVQMGTPTDCVYLGVNALMRPRPDIVVSGINAGPNLGDDVIYSGTVAAAMEGRHLGFPALAVSLDGHKHYDTAAAVTCSILRALCKEPLRTGRILNINVPDLPLDQIKGIRVTRCGTRHPADQVIPQQDPRGNTLYWIGPPGGKCDAGPGTDFAAVDEGYVSITPLHVDLTAHSAQDVVSDWLNSVGVGTQW [P0A840]
2. MTSLVSLENVSVSFGQRRVLSDVSLELKPGKILTLLGPNGAGKSTLVRVVLGLVTPDEGVIKRNGKLRIGYVPQKLYLDTTLPLTVNRFLRLRPGTHKEDILPALKRVQAGHLINAPMQKLSGGETQRVLLARALLNRPQLLVLDEPTQGVDVNGQVALYDLIDQLRRELDCGVLMVSHDLHLVMAKTDEVLCLNHHICCSGTPEVVSLHPEFISMFGPRGAEQLGIYRHHHNHRHDLQGRIVLRRGNDRS [P0A9X1]
3. MNKHTEHDTREHLLATGEQLCLQRGFTGMGLSELLKTAEVPKGSFYHYFRSKEAFGVAMLERHYAAYHQRLTELLQSGEGNYRDRILAYYQQTLNQFCQHGTISGCLTVKLSAEVCDLSEDMRSAMDKGARGVIALLSQALENGRENHCLTFCGEPLQQAQVLYALWLGANLQAKISRSFEPLENALAHVKNIIATPAV

3.04
2.63
3.13

Provide total protein half-life in vivo for all items below, preserving their order.
1. MPGLKITLLQQPLVWMDGPANLRHFDRQLEGITGRDVIVLPEMFTSGFAMEAAASSLAQDDVVNWMTAKAQQCNALIAGSVALQTESGSVNRFLLVEPGGTVHFYDKRHLFRMADEHLHYKAGNARVIVEWRGWRILPLVCYDLRFPVWSRNLNDYDLALYVANWPAPRSLHWQALLTARAIENQAYVAGCNRVGSDGNGCHYRGDSRVINPQGEIIATADAHQATRIDAELSMAALREYREKFPAWQDADEFRLW
2. MRKSVIAIIIIVLVVLYMSVFVVKEGERGITLRFGKVLRDDDNKPLVYEPGLHFKIPFIETVKMLDARIQTMDNQADRFVTKEKKDLIVDSYIKWRISDFSRYYLATGGGDISQAEVLLKRKFSDRLRSEIGRLDVKDIVTDSRGRLTLEVRDALNSGSAGTEDEVTTPAADNAIAEAAERVTAETKGKVPVINPNSMAALGIEVVDVRIKQINLPTEVSEAIYNRMRAEREAVARRHRSQGQEEAEKLRATADYEVTRTLAEAERQGRIMRGEGDAEAAKLFADAFSKDPDFYAFIRSLRAYENSFSGNQDVMVMSPDSDFFRYMKTPTSATR [P0ABC3]
3. MQILLANPRGFCAGVDRAISIVENALAIYGAPIYVRHEVVHNRYVVDSLRERGAIFIEQISEVPDGAILIFSAHGVSQAVRNEAKSRDLTVFDATCPLVTKVHMEVARASRRGEESILIGHAGHPEVEGTMGQYSNPEGGMYLVESPDDVWKLTVKNEEKLSFMTQTTLSVDDTSDVIDALRKRFPKIVGPRKDDICYATTNRQEAVRALAEQAEVVLVVGSKNSSNSNRLAELAQRMGKRAFLIDDAKDIQEEWVKEVKCVGVTAGASAPDILVQNVVARLQQLGGGEAIPLEGREENIVFEVPKELRVDIREVD
4. MKKLALILFMGTLVSFYADAGRKPCSGSKGGISHCTAGGKFVCNDGSISASKKTCTN [P0ACW4]
5. MRILLIEDDMLIGDGIKTGLSKMGFSVDWFTQGRQGKEALYSAPYDAVILDLTLPGMDGRDILREWREKGQREPVLILTARDALAERVEGLRLGADDYLCKPFALIEVAARLEALMRRTNGQASNELRHGNVMLDPGKRIATLAGEPLTLKPKEFALLELLMRNAGRVLSRKLIEEKLYTWDEEVTSNAVEVHVHHLRRKLGSDFIRTVHGIGYTLGEK
6. MSRRAGTPTAKKVTQLVNVEEHVEGFRQVREAHRRELIDDYVELISDLIREVGEARQVDMAARLGVSQPTVAKMLKRLATMGLIEMIPWRGVFLTAEGEKLAQESRERHQIVENFLLVLGVSPEIARRDAEGMEHHVSEETLDAFRLFTQKHGAK [P0A9F1]

[2.74, 3.09, 2.5, 0.862, 2.92, 3]

Provide total protein half-life in vivo for all items below, preserving their order.
1. MENKYSRLQISIHWLVFLLVIAAYCAMEFRGFFPRSDRPLINMIHVSCGISILVLMVVRLLLRLKYPTPPIIPKPKPMMTGLAHLGHLVIYLLFIALPVIGLVMMYNRGNPWFAFGLTMPYASEANFERVDSLKSWHETLANLGYFVIGLHAAAALAHHYFWKDNTLLRMMPRKRS [P0ABE5]
2. MTSPNILLTRIDNRLVHGQVGVTWTSTIGANLLVVVDDVVANDDIQQKLMGITAETYGFGIRFFTIEKTINVIGKAAPHQKIFLICRTPQTVRKLVEGGIDLKDVNVGNMHFSEGKKQISSKVYVDDQDLTDLRFIKQRGVNVFIQDVPGDQKEQIPD

[2.81, 3.52]

Can you share its total protein half-life in vivo? I mean this sequence: MNMKLKTLFAAAFAVVGFCSTASAVTYPLPTDGSRLVGQNQVITIPEGNTQPLEYFAAEYQMGLSNMMEANPGVDTFLPKGGTVLNIPQQLILPDTVHEGIVINSAEMRLYYYPKGTNTVIVLPIGIGQLGKDTPINWTTKVERKKAGPTWTPTAKMHAEYRAAGEPLPAVVPAGPDNPMGLYALYIGRLYAIHGTNANFGIGLRVSHGCVRLRNEDIKFLFEKVPVGTRVQFIDEPVKATTEPDGSRYIEVHNPLSTTEAQFEGQEIVPITLTKSVQTVTGQPDVDQVVLDEAIKNRSGMPVRLN [P0AAX8]
2.9
